Target: EDG-1/S1P1 receptor (Homo sapiens, UniProt P21453)
Sequence (P21453 whole entry): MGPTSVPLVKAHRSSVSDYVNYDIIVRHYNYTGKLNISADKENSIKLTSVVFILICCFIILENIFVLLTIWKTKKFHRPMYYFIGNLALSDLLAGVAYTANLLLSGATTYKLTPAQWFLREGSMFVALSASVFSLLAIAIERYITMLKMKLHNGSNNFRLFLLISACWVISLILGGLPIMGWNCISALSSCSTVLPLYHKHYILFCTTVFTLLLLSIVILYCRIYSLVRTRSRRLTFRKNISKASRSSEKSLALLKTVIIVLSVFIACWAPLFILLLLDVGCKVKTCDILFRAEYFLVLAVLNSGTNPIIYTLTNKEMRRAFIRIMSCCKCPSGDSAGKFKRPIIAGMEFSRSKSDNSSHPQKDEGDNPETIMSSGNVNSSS
Assay: In vitro cell based receptor activation assay - Transfluor assay
Conditions: EDG-1 Transfluor U2OS WT Clone #37 cells; beta-arrestin GFP relocalization; 375 nM or 750 nM S1P ligand
measured-parameter: EC50 (nM)
Answer format: numeric, nM implied, no suffix.

INPUT: Consider the compound CCc1c(C(C)NS(=O)(=O)c2ccc(Cl)cc2)n[nH]c1C (stereo not shown) [Example 1] and give its measured EC50.
OUTPUT: 680

The origin of these recorded values is patent US20090111860A1.
